System: HSV-1 TK^- RV-117 (clinical isolate)
Method Summary: microbe, parasite or virus in culture
Condition Notes: Human alphaherpesvirus 1, HEL
Readout Type: pEC50
Remember the convention: pEC50 equals -log10 of concentration in molar.

Name the recorded pEC50 of the molecule listed here: `Nc1ccn(C[C@@H](CO)OCP(=O)(O)O)c(=O)n1`
6.30

----------
Method Summary: Cytotoxicity assay (MTS/PES)
Type: cell-based
Condition Notes: C8166 cells, 5 days
Readout Type: CC50 (µM)
Please give a number only; it is taken to be in µM.

Name the recorded CC50 of the compound listed here: `C/C=C1\NC(=O)[C@H](Cc2ccccc2)NC(=O)[C@@H]2CCCN2C(=O)[C@H](C(C)C)NC(=O)[C@H](Cc2c[nH]c3ccccc23)NC(=O)[C@]23CSC[C@H](NC1=O)C(=O)N[C@H](C(=O)O)CSSC[C@H](NC(=O)[C@@H]1CSC[C@]4(C[C@H](N)C(=O)N[C@@H](CC(N)=O)C(=O)N[C@@H](C)C(=O)N4)C(=O)N[C@@H](C(C)C)C(=O)N[C@@H](Cc4c[nH]c5ccccc45)C(=O)N[C@@H](CCC(=O)O)C(=O)N1)C(=O)N[C@@H](C2)C(=O)N[C@@H]([C@@H](C)O)C(=O)NCC(=O)N3`
23

----------
Method Summary: Cytotoxicity assay (flow cytometry)
Assay type: cell-based
Condition Notes: HEC-1A (endometrium carcinoma), 3 days, read-out: 50% cytotoxic concentration (CC50)
Readout Type: CC50 (µM)
Please give a number only; it is taken to be in µM.

Name the recorded CC50 of the compound listed here: `C/C=C1\NC(=O)[C@H](Cc2ccccc2)NC(=O)[C@@H]2CCCN2C(=O)[C@H](C(C)C)NC(=O)[C@H](Cc2c[nH]c3ccccc23)NC(=O)[C@]23CSC[C@H](NC1=O)C(=O)N[C@H](C(=O)O)CSSC[C@H](NC(=O)[C@@H]1CSC[C@]4(C[C@H](N)C(=O)N[C@@H](CC(N)=O)C(=O)N[C@@H](C)C(=O)N4)C(=O)N[C@@H](C(C)C)C(=O)N[C@@H](Cc4c[nH]c5ccccc45)C(=O)N[C@@H](CCC(=O)O)C(=O)N1)C(=O)N[C@@H](C2)C(=O)N[C@@H]([C@@H](C)O)C(=O)NCC(=O)N3`
34

----------
System: HSV-1 wild-type RV-175 (clinical isolate)
Method Summary: microbe, parasite or virus in culture
Condition Notes: Human alphaherpesvirus 1, HEL
Recorded pEC50 values for a group of compounds are listed next.
Remember the convention: pEC50 equals -log10 of concentration in molar.

{"columns": ["Compound", "pEC50"],
 "data": [
  ["Nc1nc2c(ncn2COCCO)c(=O)[nH]1 [Acyclovir, acyclovir]", 6.74]
]}

Name the recorded pEC50 of the compound listed here: Nc1ccn(C[C@@H](CO)OCP(=O)(O)O)c(=O)n1 [Cidofovir, cidofovir]
5.96

----------
Method Summary: Cytotoxicity assay (MTS/PES)
Format: cell-based
Condition Notes: MT-4 cells, 5 days
Readout Type: CC50 (µM)
Please give a number only; it is taken to be in µM.

Name the recorded CC50 of the compound listed here: `C/C=C1\NC(=O)[C@H](Cc2ccccc2)NC(=O)[C@@H]2CCCN2C(=O)[C@H](C(C)C)NC(=O)[C@H](Cc2c[nH]c3ccccc23)NC(=O)[C@]23CSC[C@H](NC1=O)C(=O)N[C@H](C(=O)O)CSSC[C@H](NC(=O)[C@@H]1CSC[C@]4(C[C@H](N)C(=O)N[C@@H](CC(N)=O)C(=O)N[C@@H](C)C(=O)N4)C(=O)N[C@@H](C(C)C)C(=O)N[C@@H](Cc4c[nH]c5ccccc45)C(=O)N[C@@H](CCC(=O)O)C(=O)N1)C(=O)N[C@@H](C2)C(=O)N[C@@H]([C@@H](C)O)C(=O)NCC(=O)N3`
33

These data points were gathered from paper PMC3665789.
